System: LOX IMVI melanoma
Test description: NCI-60 one-dose screen, 48 h (100 = growth as untreated, 0 = no growth, -100 = all killed)
Applied conditions: 10 µM unless noted
The panel holds about 83,000 compounds, 20% with a hit somewhere; the sample as a whole holds those more often.
Just so you know, the groups by growth go like this: L (below -30%), M (-30% to below 40%), H (40% or more)

Some solved entries appear below for comparison.
Cn1cc(-c2cc(N)n3nc(-c4c[nH]c5ccc(Cl)cc45)cc3n2)c2cc(Br)cnc21; L
COc1ccc(NC2=C(I)C(=O)C(C)=C(C)C2=O)cc1; M
COc1ccc(N=Nc2c(N)nn3c(N)c(C#N)c(-c4ccc(F)cc4)nc23)cc1; H
COC(=O)c1c(C(=O)OC)c2ccc3c4ccccc4ccc3n2c1C(=O)OC; H
OCCn1cc(-c2nc3ccc4[nH]ncc4c3c3c2CCCC3)cn1; M
COc1ccc2c(c1)C(=O)N(C)C2C1c2c(cc3c(c2OC)OCO3)CCN1C (configuration not stated); H

Class? Entry: "S=C(Nc1ccc(OCc2nc3ccc(Cl)cc3[nH]2)cc1)NC1CCCCC1"
L

Class? Entry: "N#C/C(=C1/C(=O)Nc2ccccc21)c1nnc(NC(=O)c2ccc(-n3c(=O)[nH]c4ccccc4c3=O)cc2)s1"
M

Class? Entry: "Cn1ncc2c(N)nc(Oc3ccccc3-c3ccccc3)nc21"
M

Class? Entry: "CC[C@]12C=CCN3CC[C@]4(C(=C(C(=O)OC)C1)Nc1cc(OC)c([C@@H]5[C@H]6O[C@H]6[C@@]6(CC)CC(C(=O)OC)=C7Nc8cc(OC)ccc8[C@@]78CCN5[C@@H]68)cc14)[C@@H]32"
M

Class? Entry: "CN(C)c1nc(NCCNS(=O)(=O)c2ccc(C(=O)/C=C/c3ccccc3)cc2)nc(N2CCOCC2)n1"
L

Class? Entry: COc1ccc(CCC2NCCc3c(Br)c4c(c(OC)c32)OCO4)cc1 (configuration not stated)
M

Class? Entry: "COc1cc(NC(=O)C(C)C)ccc1C(=O)NC(=S)Nc1ccc(S(N)(=O)=O)cc1"
H

---

System: SK-OV-3 ovarian
Test description: NCI-60 one-dose screen, 48 h (100 = growth as untreated, 0 = no growth, -100 = all killed)
Applied conditions: 10 µM unless noted
Compounds without any hit were thinned out: in the full panel of roughly 83,000, 20% have a hit.
So I've got a bunch of molecules here, and I need their growth values.
Answers are plain numbers, in %.

Below: 8 molecules and their reported growth.
O=C(Nc1nc2ccccc2s1)Nc1ccccc1Cl; 49.2
N#Cc1c(-c2ccc(F)cc2)nc(SCc2ccccc2)nc1N1CCNCC1; -67.9
CCOC(=O)/C(F)=C/C1CC1C1CCN(C(=O)OC(C)(C)C)CC1 (stereo not given); 110
Cc1ccccc1Nc1nnc(-c2c[nH]c3ccccc23)o1; 17.6
Nc1nn2c(-c3cc4cc(Br)ccc4oc3=O)ccnc2c1N=Nc1ccccc1; -6.82
NNc1ncnc2sc3c(c12)CCN(Cc1ccccc1)C3; 72.3
O=C(Nc1ccc(-c2ccc3c(c2)NC(=O)/C3=C\c2ccc[nH]2)cc1)Nc1ccc(Cl)c(C(F)(F)F)c1; 68.3
COc1ccc2c(c1)C(Sc1ccc(Cl)cc1)c1c(nc(N)c(C#N)c1N)O2 (stereo not given); 107

For the 2 molecules below, give their growth values.
1. O=C(c1ccc(O)cc1)C1[C@H](c2ccc(Cl)cc2)[C@@H](c2ccccc2)NC12C(=O)Nc1ccc(Br)cc12 (stereo not given in full)
2. Nc1nnc(-c2cncc(Br)c2)c(-c2c[nH]c3ccc(Br)cc23)n1

1. 22
2. 98.7
